Taken from patent US20240226072A1.

Assay: Plasma pharmacokinetics and tissue distribution 2 h after oral cabazitaxel 10 mg/kg with vehicle or 25 mg/kg ritonavir in wild-type, Oatp1a/1b−/−, Oatp1a/1b/2b1−/−, OATP1B1- and OATP1B3-transgenic mice
Assay type: in vivo
Settings: male, FVB, mouse, plasma, po, 10 mg/kg, wild-type mice; vehicle; cabazitaxel 10 mg/kg oral
Description: All animals were fasted 2 to 3 hours prior to the start of the experiment to minimize variation in absorption after oral administration. […] Subsequently, cardiac puncture was performed with a heparinized needle and syringe collecting a final blood sample. […] All samples were stored at −30° C. until analysis. Differences were considered statistically significant when P<0.05. All data are presented as geometric mean±SD.
READOUT_NAME: Cmax (nM)
Give bare numbers, in nM.

Ask: Could you tell me which Cmax is on file for CO[C@H]1C(=O)[C@]2(C)[C@@H](OC)C[C@H]3OC[C@@]3(OC(C)=O)[C@H]2[C@H](OC(=O)c2ccccc2)[C@]2(O)C[C@H](OC(=O)[C@H](O)[C@@H](NC(=O)OC(C)(C)C)c3ccccc3)C(C)=C1C2(C)C [cabazitaxel] ?
Result: 2820

* * *

assay: Plasma pharmacokinetics and tissue distribution 2 h after oral cabazitaxel 10 mg/kg with vehicle or 25 mg/kg ritonavir in wild-type, Oatp1a/1b−/−, Oatp1a/1b/2b1−/−, OATP1B1- and OATP1B3-transgenic mice; format: in vivo; conditions: male, FVB, wild-type, mouse, plasma, po, 10 mg/kg, wild-type mice; vehicle; cabazitaxel 10 mg/kg oral; read-out: AUC0-2 h
READOUT_NAME: AUC(0-t) (µM·h)
One number for each entry, in µM·h.

Ask: Request the reported AUC(0-t) associated with CO[C@H]1C(=O)[C@]2(C)[C@@H](OC)C[C@H]3OC[C@@]3(OC(C)=O)[C@H]2[C@H](OC(=O)c2ccccc2)[C@]2(O)C[C@H](OC(=O)[C@H](O)[C@@H](NC(=O)OC(C)(C)C)c3ccccc3)C(C)=C1C2(C)C [cabazitaxel]
Result: 3.28

* * *

Assay: Carboxylesterase pharmacokinetic experiment: oral cabazitaxel 10 mg/kg, 2 h, in wild-type, Ces1cde−/− and Ces1−/− mice
Format: in vivo
Details: male, FVB, mouse, liver, po, 10 mg/kg, Ces1−/− mice; oral 10 mg/kg cabazitaxel; 2 h; read-out: Liver-to-plasma ratio
Protocol: The experiment was terminated by cardiac puncture at 2 hours. The organ collection and sample pretreatment were as described above. Differences were considered statistically significant when P<0.05. All data are presented as geometric mean±SD. This experiment was performed in the absence of ritonavir.
READOUT_NAME: Kp at 2 h
One number for each entry.

Ask: # input molecule: `CO[C@H]1C(=O)[C@]2(C)[C@@H](OC)C[C@H]3OC[C@@]3(OC(C)=O)[C@H]2[C@H](OC(=O)c2ccccc2)[C@]2(O)C[C@H](OC(=O)[C@H](O)[C@@H](NC(=O)OC(C)(C)C)c3ccccc3)C(C)=C1C2(C)C` ; wanted: its Kp at 2 h
Result: 14.9
